# Target of assay: human H4 receptor (Homo sapiens (Human), UniProt Q9H3N8)
# Measurement description: Binding assay on recombinant human histamine H4 receptor ([3H]histamine competition, SK-N-MC cell membranes)
# Assay setup: membranes harvested with cell harvester; [3H]histamine 10 nM; average of results; read-out: Cell Harvester Ki
Where a name gives a salt, the structure may show the parent alone.
Parameter: Ki (nM)

Here are 5 compounds together with their reported answers.
Prompt: Query (compound): `CN1CCN(c2ccnc(NC3CCCC3)n2)CC1` ; field requested: Ki
Completion: 26.7

Prompt: Query (compound): `CN1CCN(c2ccnc(NCCc3ccccc3)c2)CC1` ; field requested: Ki
Completion: 659

Prompt: Query (compound): `NC1CN(c2ccnc(NCC3CC3)n2)C1` ; field requested: Ki
Completion: 33.7

Prompt: Query (compound): `CC(C)(C)CNc1cc(N2CCNCC2)cnn1` ; field requested: Ki
Completion: 4370

Prompt: Query (compound): `CNC1CN(c2ccnc(NC(C)(C)C)c2)C1` ; field requested: Ki
Completion: 9.96

(1) CCCNc1cc(N2CC[C@@H](NC)C2)ccn1 [Example 3, dihydrochloride]
(2) CN[C@@H]1CCN(c2ccnc(NCc3ccc(OC)cc3)n2)C1
(3) CN[C@H]1CCN(c2cnnc(NCCCC(F)(F)F)c2)C1
(4) CN[C@@H]1CCN(c2cnnc(NCC(C)C)c2)C1
Prompt: Hey, quick one: sort these by Ki, low to high? Answer with the labels in sequence, matching the requested order.
Completion: 1, 4, 2, 3
(1: 7.26 nM, 4: 15 nM, 2: 458 nM, 3: 1750 nM)

(a) CN[C@H]1CCN(c2cnnc(NC3CC3)c2)C1
(b) CN[C@@H]1CCN(c2cnnc(N[C@H](C)c3ccccc3)c2)C1
Prompt: Min Ki? a | b Answer by quoting the chosen item's label.
Completion: b

(P) CN[C@H]1CCN(c2cnnc(NCC3CCC4CC3C4(C)C)c2)C1 (stereo partly drawn)
(Q) CN[C@@H]1CCN(c2cnnc(NCc3ccc(F)cc3)c2)C1
(R) CN[C@H]1CCN(c2ccnc(NC3CC3)n2)C1
Prompt: Hey, quick one: sort these by Ki, low to high? Answer with the labels in sequence, matching the requested order.
Completion: Q, P, R
(Q: 347 nM, P: 634 nM, R: 923 nM)

(A) COCCNc1nccc(N2CCN(C)CC2)n1
(B) CN[C@@H]1CCN(c2ccnc(NC[C@H]3CC[C@H]4C[C@@H]3C4(C)C)c2)C1
Prompt: Min Ki? A | B Answer by quoting the chosen item's label.
Completion: B
(B: 24.3 nM, A: 342 nM)

(1) CC(C)(CO)CNc1cc(N2CC[C@@H](N)C2)cnn1
(2) N[C@H]1CCN(c2ccnc(NC3CCCCC3)n2)C1
(3) CC1(C)[C@@H]2CC[C@@]1(C)[C@@H](Nc1nccc(N3CC[C@@H](N)C3)n1)C2
(4) CN[C@@H]1CCN(c2ccnc(NCCOC)c2)C1
Prompt: Task field, ranking: reported Ki, descending order. Answer with the labels in sequence, matching the requested order.
Completion: 1, 2, 4, 3

(I) CN1CCN(c2ccnc(NCC3CCCO3)n2)CC1 (stereo not drawn)
(II) CC1(C)[C@@H]2CC[C@@]1(C)[C@@H](Nc1nccc(N3C[C@H]4CCN[C@H]4C3)n1)C2
(III) CNC1CN(c2ccnc(NCCc3ccccc3)c2)C1
(IV) N[C@@H]1CCN(c2cnnc(NCC3CC3)c2)C1
(V) C[C@@H](Nc1cc(N2CCN(C)CC2)ccn1)C1CCCCC1
Prompt: Task field, ranking: reported Ki, descending order. Answer with the labels in sequence, matching the requested order.
Completion: IV, V, III, I, II

(a) CC(C)(C)CNc1nccc(N2CC(N)C2)n1
(b) N[C@@H]1CCN(c2ccnc(NC3CCC3)n2)C1
Prompt: Min Ki? a | b Answer by quoting the chosen item's label.
Completion: b

(a) COCCNc1cc(N2CCNCC2)ccn1
(b) CN[C@@H]1CCN(c2cnnc(NC3CC3)c2)C1
(c) CNC1CN(c2ccnc(NCC3CCC4CC3C4(C)C)n2)C1 (stereo not drawn)
Prompt: Hey, quick one: sort these by Ki, low to high? Answer with the labels in sequence, matching the requested order.
Completion: c, a, b
(c: 165 nM, a: 247 nM, b: 699 nM)

----------
# Target of assay: human H4 receptor (Homo sapiens (Human))
# Measurement description: Binding assay on recombinant human histamine H4 receptor ([3H]histamine competition, SK-N-MC cell membranes)
# Assay setup: membranes harvested with cell harvester; [3H]histamine 10 nM; average of results; read-out: Cell Harvester Ki
pKi: −log10 of the molar value.
Parameter: pKi

Prompt: Value wanted: pKi (human H4 receptor (Homo sapiens (Human))) of entry `C[C@@H]1[C@@H](Nc2nccc(N3CCN(C)CC3)n2)C[C@H]2C[C@@H]1C2(C)C`
Completion: 6.32

(P) N[C@H]1CCN(c2ccnc(NC3CCCC3)n2)C1
(Q) CNC1CN(c2ccnc(NC3CC4CCC3C4)n2)C1 (centres unmarked)
Prompt: Identify the entry with the larger pKi. Options: P and Q Answer by quoting the chosen item's label.
Completion: Q

----------
# Target of assay: human H4 receptor (Homo sapiens (Human))
# Measurement description: cell-based
# Type: cell-based
# Assay setup: apparent pA2 from Schild plot; antagonism of histamine inhibition of forskolin-stimulated cAMP
# Description: SK-N-MC cell lines were created that express a reporter gene construct and the human H4 receptor full-coding region (NCBI accession No. AF312230). The reporter gene was β-galactosidase under the control of cyclic AMP-responsive elements. […] For the H4 receptor, the inhibition of forskolin-stimulated cAMP production was measured. […] Color was quantitated on a microplate reader by measuring the absorbance at 570 nm. […] Apparent pA2 values were calculated using a Schild plot (ND=not determined).
Parameter: pA2

Prompt: Value wanted: pA2 (human H4 receptor (Homo sapiens (Human))) of entry `CN[C@@H]1CCN(c2cnnc(NCC(C)C)c2)C1`
Completion: 7.8

Prompt: Value wanted: pA2 (human H4 receptor (Homo sapiens (Human))) of entry CN[C@H]1CCN(c2ccnc(NC3CC4CCC3C4)n2)C1 (stereo partly shown)
Completion: 8.1

Prompt: Value wanted: pA2 (human H4 receptor (Homo sapiens (Human))) of entry `CN[C@@H]1CCN(c2ccnc(NC(C)C)c2)C1`
Completion: 8.5

Prompt: Value wanted: pA2 (human H4 receptor (Homo sapiens (Human))) of entry CN[C@H]1CCN(c2ccnc(NC3CC4CCC3C4)c2)C1 (stereo partly shown)
Completion: 9

----------
# Target of assay: human H4 receptor (Homo sapiens (Human), UniProt Q9H3N8)
# Measurement description: Binding assay on recombinant human histamine H4 receptor ([3H]histamine competition, SK-N-MC cell membranes)
# Assay setup: read-out: Brandel Ki
Parameter: Ki (µM)
Answer in µM, number only, no unit symbol.

Prompt: Value wanted: Ki (human H4 receptor (Homo sapiens (Human), UniProt Q9H3N8)) of entry CCCCNc1cc(N2CCNCC2)ccn1 [Example 36, N-Butyl-4-piperazin-1-ylpyridin-2-amine]
Completion: 0.0913

----------
# Target of assay: human H4 receptor (Homo sapiens (Human), UniProt Q9H3N8)
# Measurement description: Binding assay on recombinant human histamine H4 receptor ([3H]histamine competition, SK-N-MC cell membranes)
# Assay setup: membranes harvested with cell harvester; [3H]histamine 10 nM; average of results; read-out: Cell Harvester Ki
Parameter: Ki (µM)

Here are 4 molecules together with their reported answers.
Prompt: Query (molecule): NC1CN(c2ccnc(NC3CCCC3)n2)C1 [Example 85] ; field requested: Ki
Completion: 0.0182

Prompt: Query (molecule): COCCNc1nccc(N2CC[C@H](N)C2)n1 [Example 128] ; field requested: Ki
Completion: 0.844

Prompt: Query (molecule): CN[C@H]1CCN(c2ccnc(NCCCO)n2)C1 [Example 152] ; field requested: Ki
Completion: 2.3

Prompt: Query (molecule): CCCCNc1cc(N2CC[C@@H](N)C2)cnn1 [Example 367] ; field requested: Ki
Completion: 0.867

(I) CN[C@@H]1CCN(c2ccnc(NCC(C)(C)CO)n2)C1 [Example 169]
(II) CN[C@@H]1CCN(c2ccnc(N[C@@H]3C[C@@H]4C[C@H]([C@H]3C)C4(C)C)c2)C1 [Example 10]
Prompt: Identify the entry with the larger Ki. Options: I and II Answer by quoting the chosen item's label.
Completion: I
(I: 0.00967 µM, II: 0.0005 µM)

(A) CN1CCN(c2ccnc(N[C@H]3C[C@H]4CC[C@]3(C)C4(C)C)c2)CC1 [Example 252]
(B) CN1CCN(c2ccnc(NCC3CCCC3)n2)CC1 [Example 119]
(C) NC1CN(c2cnnc(NC3CC4CCC3C4)c2)C1 (stereo not shown) [Example 322]
Prompt: Task field, ranking: reported Ki, descending order. Answer with the labels in sequence, matching the requested order.
Completion: A, C, B
(A: 0.19 µM, C: 0.0881 µM, B: 0.0229 µM)
